Test system: 931267-113-T-J1-PDC KRAS spheroid with HUVEC/MSC, viability
Assay: Anticancer human tumor 931267-113-T-J1-PDC patient-derived colon adenocarcinoma cell line growth inhibition [KRAS2]
Conditions: compound 0.00316 µM; stronger effect = lower value
Catalogue of molecules with associated viability, T/C

Example entries and their recorded answers appear below.
### Prompt Look up viability, T/C: "CC(=O)Nc1cccc(-n2c(=O)n(C3CC3)c(=O)c3c(Nc4ccc(I)cc4F)n(C)c(=O)c(C)c32)c1"
### Response 64.2% [middle of 5 runs]

### Prompt Suppose we examine the molecule "CC(C)n1nc(-c2ccc3oc(N)nc3c2)c2c(N)ncnc21" ; what viability, T/C value has been reported?
### Response 66.5% [middle of 5 runs]

### Prompt Dear colleague, I am looking for the recorded viability, T/C of the following molecule: "CCN1CCN(Cc2ccc(Nc3ncc(F)c(-c4cc(F)c5nc(C)n(C(C)C)c5c4)n3)nc2)CC1"
### Response 85.5% [middle of 5 runs]

Let's switch to this molecule now.
### Prompt What value of viability, T/C has been reported for the following molecule? "Cn1ncnc1[C@H]1c2n[nH]c(=O)c3cc(F)cc(c23)N[C@@H]1c1ccc(F)cc1"
### Response 98.9% [middle of 5 runs]

###

Tested on: 931267-113-T-J1-PDC KRAS spheroid with HUVEC/MSC, viability
Assay: Anticancer human tumor 931267-113-T-J1-PDC cell line growth inhibition [KRAS2];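 note: compound exposure lasted 7 days before the readout; 100% = DMSO vehicle control viability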
Conditions: second compound 3.16 µM; first compound 0.00316 µM; stronger effect = lower value
Items are presented alongside their recorded viability, T/C.
Just the number please, in %, no unit attached.

Look over these answered cases.
### Prompt Please give the measured viability, T/C for this molecule: CN(C)C/C=C/C(=O)Nc1cc2c(Nc3ccc(F)c(Cl)c3)ncnc2cc1O[C@H]1CCOC1 + COc1cc2nc(C)nc(NC(C)c3cc(N)cc(C(F)(F)F)c3)c2cc1OC1CCOC1
### Response 88.1

### Prompt Please report the recorded viability, T/C for CC(C)n1nc(-c2ccc3oc(N)nc3c2)c2c(N)ncnc21 + CC1OCC2(CCN(c3cnc(Sc4ccnc(N)c4Cl)c(N)n3)CC2)C1N .
### Response 46.1

---
### Prompt So what's the measured viability, T/C for this one? CCN1CCN(Cc2ccc(Nc3ncc(F)c(-c4cc(F)c5nc(C)n(C(C)C)c5c4)n3)nc2)CC1 + C=CC(=O)N1CCN(c2nc(OCC3CCCN3C)nc3c2CCN(c2cccc4cccc(C)c24)C3)CC1CC#N
### Response 0.66

###

Reported viability, T/C values for the following molecules.
Test system: 931267-113-T-J1-PDC KRAS spheroid with HUVEC/MSC, viability
Test: Anticancer human tumor 931267-113-T-J1-PDC cell line growth inhibition [KRAS2];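 note: compound exposure lasted 7 days before the readout; 100% = DMSO vehicle control viability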
Settings: second compound 0.1 µM; first compound 0.00316 µM; stronger effect = lower value
Excerpt: Multicellular complex tumor spheroid response to RAS pathway inhibitors in combination with a targeted agents in patient-derived cell lines with oncogenic KRAS variants from multiple cancer types A high-throughput screen of multi-cell type tumor spheroids was designed to identify active combinations of targeted small molecules and KRAS pathway inhibitors. […] Compounds. […] If the clinical Cmax for an agent had not been determined, the highest concentration tested was 10 microM. […]
Reply with just the number (in %).

For orientation, consider the following solved cases.
### Prompt viability, T/C lookup needed for CC(=O)Nc1cccc(-n2c(=O)n(C3CC3)c(=O)c3c(Nc4ccc(I)cc4F)n(C)c(=O)c(C)c32)c1 + C=CC(=O)N1CCN(c2nc(=O)n(-c3c(C)ccnc3C(C)C)c3nc(-c4c(O)cccc4F)c(F)cc23)C(C)C1 , thanks.
### Response 60.1

### Prompt viability, T/C lookup needed for CN(C)C/C=C/C(=O)Nc1cc2c(Nc3ccc(F)c(Cl)c3)ncnc2cc1O[C@H]1CCOC1 + CC1OCC2(CCN(c3cnc(Sc4ccnc(N)c4Cl)c(N)n3)CC2)C1N , thanks.
### Response 58.5

***
### Prompt Using the record for CC(C)n1nc(-c2ccc3oc(N)nc3c2)c2c(N)ncnc21 + CC1OCC2(CCN(c3cnc(Sc4ccnc(N)c4Cl)c(N)n3)CC2)C1N , report its viability, T/C.
### Response 49.5
